Sourced from patent US10683278B2

Molecular target: FLT-3 kinase domain recombinant protein (Homo sapiens)
Construct: 50 μL FLT-3 kinase domain recombinant protein diluted with reaction buffer to initiate the reaction
Sequence (P36888 610-943 limits assumed): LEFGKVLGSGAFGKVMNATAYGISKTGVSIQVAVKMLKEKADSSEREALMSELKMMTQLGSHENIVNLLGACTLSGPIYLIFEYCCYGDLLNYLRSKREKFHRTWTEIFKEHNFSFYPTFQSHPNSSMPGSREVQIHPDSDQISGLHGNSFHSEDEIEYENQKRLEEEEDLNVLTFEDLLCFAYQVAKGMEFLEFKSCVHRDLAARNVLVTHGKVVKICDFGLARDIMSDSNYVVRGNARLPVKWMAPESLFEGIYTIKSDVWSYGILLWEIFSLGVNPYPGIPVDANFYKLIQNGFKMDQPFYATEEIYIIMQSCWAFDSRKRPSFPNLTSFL
Test: Inhibition rate on FLT3 kinase (ELISA)
Assay type: biochemical
Details: compound 1000 nM; two values per compound; read-out: Inhibition rate (%) against receptor tyrosine kinase FLT-3
# Lookup of reported inhibition at 1 µM keyed by entry
Quick reminder: number only, in %, skip the unit.

Query string: Look up inhibition at 1 µM for this compound: CCc1ccc2c(c1)c(=O)c(C(=O)Nc1ccc(Oc3ncnc4cc(OCCN(C)C)c(OC)cc34)c(F)c1)c(C)n2C
Result string: 87.9

Query string: Look up inhibition at 1 µM for this compound: CCc1ccc2c(c1)c(=O)c(C(=O)Nc1ccc(Oc3ncnc4cc(OCCN5CCCC5)c(OC)cc34)c(F)c1)c(C)n2C
Result string: 95.2

Query string: Look up inhibition at 1 µM for this compound: Cc1c(C(=O)Nc2ccc(Oc3ncnc4[nH]cc(-c5ccccc5)c34)c(F)c2)c(=O)c2cc(OC(F)(F)F)ccc2n1C
Result string: 83.8

Query string: Look up inhibition at 1 µM for this compound: Cc1c(C(=O)Nc2ccc(Oc3ncnc4[nH]cc(-c5ccccc5)c34)c(F)c2)c(=O)c2cc(C(C)(C)C)ccc2n1C
Result string: 84

Query string: Look up inhibition at 1 µM for this compound: COc1cc2ncnc(Oc3ccc(NC(=O)c4cn5c6c(c(N7CCN(C)CC7)c(F)cc6c4=O)OCN5C)cc3F)c2cc1OC
Result string: 87.6

---

biological target: FLT-3 kinase domain recombinant protein (Homo sapiens, UniProt P36888); construct: 50 μL FLT-3 kinase domain recombinant protein diluted with reaction buffer to initiate the reaction; assay: Inhibition rate on FLT3 kinase (ELISA); type: biochemical; conditions: compound 1000 nM; two values per compound; read-out: Inhibition rate (%) against receptor tyrosine kinase FLT-3
# Lookup of reported inhibition at 1 µM keyed by entry
Quick reminder: number only, in %, skip the unit.

Some compounds with known inhibition at 1 µM results, for comparison:
| compound_smiles | inhibition at 1 µM [%] |
| --- | --- |
| COc1cc2ncnc(Oc3ccc(NC(=O)c4cn(-c5ccc(F)cc5)c5cc(N6CCNCC6)c(F)cc5c4=O)cc3F)c2cc1OC | 92.3 |
| CCc1ccc2c(c1)c(=O)c(C(=O)Nc1ccc(Oc3ncnc4[nH]cc(-c5ccccc5)c34)c(F)c1)c(CC)n2C | 71.4 |
| Cc1c(C(=O)Nc2ccc(Oc3ncnc4[nH]cc(-c5ccccc5)c34)c(F)c2)c(=O)c2cc(C(C)C)ccc2n1C | 81.8 |

Alright, here's another compound for you.
Query string: Request: inhibition at 1 µM, test system FLT-3 kinase domain recombinant protein (Homo sapiens, UniProt P36888), entry CCc1ccc2c(c1)c(=O)c(C(=O)Nc1ccc(Oc3ccnc(N)c3Cl)c(F)c1)c(C)n2C
Result string: 88.7
